Values were extracted from patent US20250129140A1.

Would you kindly list IC50(HTR-svNeo) TB40/E, virus neutralization for each of these binders?
targetSystem: gH/gL of HCMV strain TB40/E (on virus) (human cytomegalovirus (strain TB40/E))
protocolSummary: cell-based or functional assay
# number only, unit µg/mL dropped from output

### Prompt Request the reported IC50(HTR-svNeo) TB40/E, virus neutralization associated with 13G1 (antibody, V domains shown, also called 13G1 (ms); anti-gH mAb 13G1) VH: QVTLKESGPVLVKPTETLTLTCTVSGFSLYNARMGVTWIRQPPGKALEWLAHIFSNDERSYTSSLKNRLTISKDTSKSQVVLTMTNMDPVDTATYYCARIDYSNYIGNWFDPWGQGTLVTVSS VL: DIQMTQSPSSLSASVGDRVTITCRASQSISNYLNWYQQKPGKAPKLLIYAASSLQGGVPSRFSGSGSGTDFTLTISSLQPEDFTTYYCQQSYSTPFTFGGGTKVEIK
### Response 1.12

### Prompt What does the record list as IC50(HTR-svNeo) TB40/E, virus neutralization for 9A12 (antibody, V domains shown, also called 9A12 (ms); anti-gH mAb 9A12) VH: EVQLVESGGVLVQPGGSLRLSCAASGFTFSSHEMNWVRQAPGKGLEWISYISSTGSTIYDADSVKGRFTISRDNAKNSLYLQMNSLRAEDTAVYYCARSSGWYRNYSYGMDVWGQGTTVTVSS VL: DIQMAQSPSSLSASVGDRVTITCRASQGIYNYLAWFQQKPGKAPKSLIYAASSLQTGVPSKFSGSGSGTDFTLTISNLQPEDFATYYCQQYNSFPRTFGQGTKVEIK ?
### Response 0.72

### Prompt Entry under review: 15G11 (antibody, V domains shown, also called 15G11 (ms); anti-gH mAb 15G11) VH: QVQLQESGPGLVKPSQTLSLTCTVSGGSISSGYYYWNWIRQHPGKGLECIGYIYYSGTTYYNPSLKSRLFISVDTSKNQFSLKLRSVTAADTAVYYCARGGLGAFDIWGQGTMVTVSS VL: EIVLTQSPGTLSLSPGERATLSCRASQSVSSSYLAWYQQKPGQAPRLLIYGASSRAPGIPDRFSGTGSGTDFTLTISRLEPEDFAVYYCQQYGISPLTFGGGTKVEIK . Reported IC50(HTR-svNeo) TB40/E, virus neutralization?
### Response 0.41
